Compiled literature IC50, tested on Hepatocyte growth factor receptor (Homo sapiens, UniProt P08581).

See these solved cases before continuing.
* O=C(c1cnc2c(c1)N(Cc1cc(Cl)ccc1Cl)CCN2)N1CCCC1c1cccnc1 (centres unmarked) | > 100 µM
* Cc1ccc(Nc2cnc3[nH]ccc3c2)cc1 | ≤ 10 µM
* COc1ccncc1C(=O)Nc1cc(F)c(Oc2ccnc3cc(OC)c(OC4(CO)CC4)nc23)c(F)c1 | ≤ 0.1 µM

Hi there! I need IC50 for each item below, if you can.
1. NCC#Cc1cnc2c(c1)N(Cc1cc(Cl)ccc1Cl)CCN2
2. CN1CCN(C(=O)c2ccc(-c3cnc(N)c(-c4nc5ccccc5s4)c3)cc2)CC1
3. CCOC(=O)N1CCC(NC(=O)c2cnc3c(c2)N(Cc2cc(Cl)ccc2Cl)CCN3)CC1
4. O=C(Nc1cccc(Cn2nc(-c3cc(F)cc(F)c3)ccc2=O)c1)OCCCN1CCCC1
5. Cc1ccc2nnc(Cc3ccc4ncc(-c5cncnc5)cc4c3)n2n1
6. O=C(Nc1cn2nc(Sc3nnc4ccc(-c5ccc(N6CCNCC6)cc5)cn34)ccc2n1)C1CC1

Return:
1. 10 to 100 µM
2. 0.1 to 1 µM
3. 10 to 100 µM
4. 0.01 to 1 µM
5. 0.1 to 1 µM
6. < 0.03 µM

Hi there! I need IC50 for each item below, if you can.
1. C[C@@H](O)[C@@H](N)c1nn2c(Cc3ccc4ncc(-c5cnn(C)c5)cc4c3)nnc2s1
2. O=C(c1ccc(-c2cnc3c(c2)N(Cc2cc(Cl)ccc2C(F)(F)F)CCN3)cc1)N1CCCCC1
3. CCOC(=O)Nc1cccc(Cn2nc(-c3cc(F)c(OCCCCCNC(=O)OC(C)(C)C)c(F)c3)ccc2=O)c1
4. CCNC(=O)c1ccc(-c2ccc3nnc(Cc4ccc5ncsc5c4)n3n2)cc1F
5. Cn1ncc2ccc(-c3n[nH]c4c3Cc3sc(-c5ccc(C(=O)N6CCOCC6)nc5)cc3-4)cc21
6. CC(c1ccc(-c2cc3c(s2)Cc2c(-c4ccc5cnn(C)c5c4)n[nH]c2-3)cc1)N1CCOCC1 (centres unmarked)
7. Cn1cc(-c2cnc3ccc(Cc4nnc5sc([C@H](N)CC6CCCCC6)nn45)cc3c2)cn1

Return:
1: 1 to 10 µM; 2: 10 to 100 µM; 3: 0.01 to 1 µM; 4: 0.1 to 1 µM; 5: > 1 µM; 6: > 1 µM; 7: < 0.1 µM

Enquiry: Reported IC50, molecule Oc1ccc(Cc2nnc3ccc(-c4ccccc4)nn23)cc1 : ____
Return: 0.1 to 1 µM

---

Compiled literature IC50, tested on Hepatocyte growth factor receptor (Homo sapiens, UniProt P08581).

See these solved cases before continuing.
• CCOC(=O)Nc1cccc(Cn2nc(-c3ccc(CNC(=O)CCOC)cc3)ccc2=O)c1 = 10 to 1000 nM
• O=C(Nc1ccc(Oc2ccnn3ccc(-c4cccc(CO)c4)c23)c(F)c1)c1cccn(-c2ccc(F)cc2)c1=O = < 40 nM

Hi there! I need IC50 for each item below, if you can.
1. CCOC(=O)Nc1cccc(Cn2nc(-c3ccc(CNC(=O)CN(C)C)cc3)ccc2=O)c1
2. CCCn1cc(-c2cc(Oc3ccc(NC(=O)Nc4cc(CC)nn4-c4cccc(C#N)c4)c(F)c3)ccn2)cn1

Return:
1: 10 to 1000 nM; 2: < 1000 nM
